experiment-description: Pharmacokinetics in CD-1 mice, serum by LC-MS/MS
Type: in vivo, mouse
condition-context: CD-1, mouse, serum, intraperitoneal; 20 mg/kg IP, 15 min; read-out: [Drug] serum concentration
experimental-readout: concentration at 15 min (µM)
Report the figure in µM without appending any unit label.

Requested read-out: concentration at 15 min. Entry: CCCS(=O)(=O)Nc1cc(Cl)cc(-c2nc(C(C)(C)C)sc2-c2ccnc(N)n2)c1F
12.9

###

experiment-description: Pharmacokinetics in CD-1 mice, serum by LC-MS/MS
Format: in vivo, mouse
condition-context: CD-1, mouse, serum; 25 mg/kg IV, 60 min; read-out: [Drug] serum concentration
experimental-readout: concentration at 60 min (µM)
Report the figure in µM without appending any unit label.

Requested read-out: concentration at 60 min. Entry: CCCS(=O)(=O)Nc1cc(Cl)cc(-c2nc(C(C)(C)C)sc2-c2ccnc(N)n2)c1F
6.56

###

Tested on: V600EBRAF melanoma cell lines
experiment-description: Cell viability, panel of V600E BRAF melanoma cell lines
Format: cell-based
condition-context: range over the panel; read-out: IC50 values against a panel of V600EBRAF melanoma cell lines
pIC50: −log10 of the molar value.
experimental-readout: pIC50

Requested read-out: pIC50. Entry: CCCS(=O)(=O)Nc1cc(Cl)cc(-c2nc(C(C)(C)C)sc2-c2ccnc(N)n2)c1F [6-261]
8.00 to 8.70

###

experiment-description: Pharmacokinetics in CD-1 mice, serum by LC-MS/MS
Format: in vivo, mouse
condition-context: CD-1, mouse, serum, intraperitoneal; 20 mg/kg IP, 240 min; read-out: [Drug] serum concentration
experimental-readout: concentration at 240 min (nM)
Report the figure in nM without appending any unit label.

Requested read-out: concentration at 240 min. Entry: CCCS(=O)(=O)Nc1cc(Cl)cc(-c2nc(C(C)(C)C)sc2-c2ccnc(N)n2)c1F
581

###

assayed-target: P-gp (Homo sapiens, UniProt P08183)
Construct: host or cells: MDCK (MDR1-MDCK)
Sequence (P08183 whole entry): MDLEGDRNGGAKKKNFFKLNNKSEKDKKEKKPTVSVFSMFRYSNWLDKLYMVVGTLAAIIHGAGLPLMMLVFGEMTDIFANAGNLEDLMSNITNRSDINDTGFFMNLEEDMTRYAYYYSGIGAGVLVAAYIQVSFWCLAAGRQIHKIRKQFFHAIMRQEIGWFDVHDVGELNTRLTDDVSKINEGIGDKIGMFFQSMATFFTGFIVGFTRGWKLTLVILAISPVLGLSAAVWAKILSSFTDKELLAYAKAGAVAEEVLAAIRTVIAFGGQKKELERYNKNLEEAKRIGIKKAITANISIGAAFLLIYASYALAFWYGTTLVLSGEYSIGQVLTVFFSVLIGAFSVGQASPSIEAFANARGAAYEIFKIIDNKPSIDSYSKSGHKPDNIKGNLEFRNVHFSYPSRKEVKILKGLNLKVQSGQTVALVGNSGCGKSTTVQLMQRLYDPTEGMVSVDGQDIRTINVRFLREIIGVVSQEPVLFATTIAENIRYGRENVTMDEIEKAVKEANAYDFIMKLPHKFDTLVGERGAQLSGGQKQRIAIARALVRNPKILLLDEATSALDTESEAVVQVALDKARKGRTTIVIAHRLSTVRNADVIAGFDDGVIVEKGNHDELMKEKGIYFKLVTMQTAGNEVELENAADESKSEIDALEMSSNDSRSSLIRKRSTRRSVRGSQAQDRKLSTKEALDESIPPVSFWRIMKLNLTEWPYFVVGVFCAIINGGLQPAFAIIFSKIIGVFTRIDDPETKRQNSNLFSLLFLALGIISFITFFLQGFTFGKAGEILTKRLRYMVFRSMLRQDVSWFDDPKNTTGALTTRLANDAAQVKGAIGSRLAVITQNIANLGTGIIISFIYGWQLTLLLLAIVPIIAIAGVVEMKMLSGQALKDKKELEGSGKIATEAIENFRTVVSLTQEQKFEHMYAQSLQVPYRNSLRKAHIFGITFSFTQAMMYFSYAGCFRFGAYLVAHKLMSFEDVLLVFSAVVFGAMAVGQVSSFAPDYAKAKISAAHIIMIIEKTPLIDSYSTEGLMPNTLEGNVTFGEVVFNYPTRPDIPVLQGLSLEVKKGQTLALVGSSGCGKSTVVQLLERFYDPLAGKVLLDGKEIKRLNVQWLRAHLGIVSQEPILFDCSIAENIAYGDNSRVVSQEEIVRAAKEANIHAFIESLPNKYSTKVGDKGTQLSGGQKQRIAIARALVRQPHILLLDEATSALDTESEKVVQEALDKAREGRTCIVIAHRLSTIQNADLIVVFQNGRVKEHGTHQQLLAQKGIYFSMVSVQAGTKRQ
experiment-description: MDR1-MDCK P-gp transwell bidirectional transport assay
Format: in vitro ADME
condition-context: dog, MDCK-MDR1, MDR1-MDCK, 10 μM, 90 min
Each entry below carries its recorded Papp B→A at 90 min, 10 µM.
Report the figure in ×10⁻⁶ cm/s without appending any unit label.

smiles_structure=CC(C)(C)c1nc(-c2cccc(NS(=O)(=O)c3c(F)cccc3F)c2F)c(-c2ccnc(NCCCC(=O)O)n2)s1 assayed_target="P-gp (Homo sapiens, UniProt P08183)" endpoint_result=0.445
smiles_structure=CC(C)(C)c1nc(-c2cccc(NS(=O)(=O)c3c(F)cccc3F)c2F)c(-c2ccnc(N[C@@H]3CC[C@H](C(=O)O)C3)n2)s1 assayed_target="P-gp (Homo sapiens, UniProt P08183)" endpoint_result=0.626
smiles_structure=CC(C)(C)c1nc(-c2cccc(NS(=O)(=O)c3c(F)cccc3F)c2F)c(-c2ccnc(NCCCCc3nnn[nH]3)n2)s1 assayed_target="P-gp (Homo sapiens, UniProt P08183)" endpoint_result=0.325

Requested read-out: Papp B→A at 90 min, 10 µM. Entry: CC(C)(C)c1nc(-c2cccc(NS(=O)(=O)c3c(F)cccc3F)c2F)c(-c2ccnc(NCCCCC(=O)O)n2)s1
2.17

###

System: AM-38 cells
experiment-description: 72-hour cell viability assay (Alamar Blue), AM-38
Type: cell-based
condition-context: V600E BRAF, glioma
experimental-readout: pIC50
The quantity pIC50 is defined as the negative base-10 logarithm of the molar concentration.

Requested read-out: pIC50. Entry: CC(C)(C)c1nc(-c2cccc(NS(=O)(=O)c3c(F)cccc3F)c2F)c(-c2ccnc(N)n2)s1 [Dabrafenib, reference compound]
8.16

###

experiment-description: Pharmacokinetics in CD-1 mice, serum by LC-MS/MS
Assay type: in vivo, mouse
condition-context: CD-1, mouse, serum, ip, 20 mg/kg, 20 mg/kg IP, CD-1 mice, one-compartment model; read-out: AUC (converted)
experimental-readout: AUC (ng·h/mL)
Report the figure in ng·h/mL without appending any unit label.

Requested read-out: AUC. Entry: CCCS(=O)(=O)Nc1cc(Cl)cc(-c2nc(C(C)(C)C)sc2-c2ccnc(N)n2)c1F
8400

###

experiment-description: Pharmacokinetics in CD-1 mice, serum by LC-MS/MS
Format: in vivo, mouse
condition-context: CD-1, mouse, serum, intraperitoneal; 20 mg/kg IP, 960 min; read-out: [Drug] serum concentration
experimental-readout: concentration at 960 min
Write your answer as a measured quantity: the number, then the unit.

Requested read-out: concentration at 960 min. Entry: CCCS(=O)(=O)Nc1cc(Cl)cc(-c2nc(C(C)(C)C)sc2-c2ccnc(N)n2)c1F [6-261]
0 µM

###

assayed-target: P-gp (Homo sapiens, UniProt P08183)
Construct: host or cells: MDCK (MDR1-MDCK)
experiment-description: MDR1-MDCK P-gp transwell bidirectional transport assay
Format: in vitro ADME
condition-context: dog, MDCK-MDR1, MDR1-MDCK, 10 μM, 90 min
experimental-readout: Papp B→A at 90 min, 10 µM (×10⁻⁶ cm/s)
Report the figure in ×10⁻⁶ cm/s without appending any unit label.

Consider the reported Papp B→A at 90 min, 10 µM for these molecules:
molecule=CC(C)(C)c1nc(-c2c(F)ccc(NS(=O)(=O)c3cc(C(F)(F)F)ccc3C(F)(F)F)c2F)c(-c2ccnc(N)n2)s1 experimental_readout="Papp B→A at 90 min, 10 µM" u="×10⁻⁶ cm/s" endpoint_result=5.66
molecule=CC(C)(C)c1nc(-c2cccc(NS(=O)(=O)c3c(F)cccc3F)c2F)c(-c2ccnc(Nc3ccc(C(=O)O)cc3)n2)s1 experimental_readout="Papp B→A at 90 min, 10 µM" u="×10⁻⁶ cm/s" endpoint_result=1.45
molecule=CC(C)(C)c1nc(-c2cccc(NS(=O)(=O)c3c(F)cccc3F)c2F)c(-c2ccnc(CCC(=O)O)n2)s1 experimental_readout="Papp B→A at 90 min, 10 µM" u="×10⁻⁶ cm/s" endpoint_result=0.741

Provide the documented Papp B→A at 90 min, 10 µM with P-gp (Homo sapiens, UniProt P08183) as the system for COC(=O)N[C@@H](C)CNc1nccc(-c2cn(C(C)C)nc2-c2cc(Cl)cc(NS(C)(=O)=O)c2F)n1 [Encorafenib, reference compound]
14.7

Provide the documented Papp B→A at 90 min, 10 µM with P-gp (Homo sapiens, UniProt P08183) as the system for CC(C)(C)c1nc(-c2cccc(NS(=O)(=O)c3c(F)cccc3F)c2F)c(-c2ccnc(CCCC(=O)O)n2)s1
1.45

###

experiment-description: Pharmacokinetics in CD-1 mice, serum by LC-MS/MS
Assay type: in vivo, mouse
condition-context: CD-1, mouse, serum, intraperitoneal; 20 mg/kg IP, 480 min; read-out: [Drug] serum concentration
experimental-readout: concentration at 480 min (nM)
Report the figure in nM without appending any unit label.

Requested read-out: concentration at 480 min. Entry: CCCS(=O)(=O)Nc1cc(Cl)cc(-c2nc(C(C)(C)C)sc2-c2ccnc(N)n2)c1F [6-261]
14

###

assayed-target: P-gp (Homo sapiens)
Construct: host or cells: MDCK (MDR1-MDCK)
experiment-description: MDR1-MDCK P-gp transwell bidirectional transport assay
Assay type: in vitro ADME
condition-context: dog, MDCK-MDR1, MDR1-MDCK, 10 μM, 90 min
Each entry below carries its recorded Papp A→B at 90 min, 10 µM.

compound="CC(C)(C)c1nc(-c2c(F)ccc(NS(=O)(=O)c3cc(C(F)(F)F)ccc3C(F)(F)F)c2F)c(-c2ccnc(NCCCCC(=O)O)n2)s1 [6-150]" assayed_target="P-gp (Homo sapiens)" experimental_readout="Papp A→B at 90 min, 10 µM" endpoint_result="0.518 ×10⁻⁶ cm/s"
compound="CCCS(=O)(=O)Nc1ccc(F)c(C(=O)c2c[nH]c3ncc(-c4ccc(Cl)cc4)cc23)c1F [Vemurafenib, reference compound]" assayed_target="P-gp (Homo sapiens)" experimental_readout="Papp A→B at 90 min, 10 µM" endpoint_result="0.667 ×10⁻⁶ cm/s"
compound="CC(C)(C)c1nc(-c2cccc(NS(=O)(=O)c3c(F)cccc3F)c2F)c(-c2ccnc(N[C@@H]3CC[C@H](C(=O)O)C3)n2)s1 [6-91]" assayed_target="P-gp (Homo sapiens)" experimental_readout="Papp A→B at 90 min, 10 µM" endpoint_result="0.493 ×10⁻⁶ cm/s"
compound="CC(C)(C)c1nc(-c2cccc(NS(=O)(=O)c3c(F)cccc3F)c2F)c(-c2ccnc(Nc3ccc(C(=O)O)cc3)n2)s1 [6-77]" assayed_target="P-gp (Homo sapiens)" experimental_readout="Papp A→B at 90 min, 10 µM" endpoint_result="1.58 ×10⁻⁶ cm/s"
compound="CC(C)(C)c1nc(-c2cccc(NS(=O)(=O)c3c(F)cccc3F)c2F)c(-c2ccnc(NCCCCC(=O)O)n2)s1 [6-83]" assayed_target="P-gp (Homo sapiens)" experimental_readout="Papp A→B at 90 min, 10 µM" endpoint_result="1.09 ×10⁻⁶ cm/s"
compound="CCCS(=O)(=O)Nc1cc(Cl)cc(-c2nc(C(C)(C)C)sc2-c2ccnc(N)n2)c1F [6-261]" assayed_target="P-gp (Homo sapiens)" experimental_readout="Papp A→B at 90 min, 10 µM" endpoint_result="4.92 ×10⁻⁶ cm/s"
compound="CC(C)(C)c1nc(-c2cccc(NS(=O)(=O)c3c(F)cccc3F)c2F)c(-c2ccnc(NCCCC(=O)O)n2)s1 [6-86]" assayed_target="P-gp (Homo sapiens)" experimental_readout="Papp A→B at 90 min, 10 µM" endpoint_result="0.844 ×10⁻⁶ cm/s"
compound="CCCS(=O)(=O)Nc1cc(Cl)cc(-c2nc(C(C)(C)C)sc2-c2ccnc(NCCCCC(=O)O)n2)c1F [6-263]" assayed_target="P-gp (Homo sapiens)" experimental_readout="Papp A→B at 90 min, 10 µM" endpoint_result="2.15 ×10⁻⁶ cm/s"

Requested read-out: Papp A→B at 90 min, 10 µM. Entry: CC(C)(C)c1nc(-c2cccc(NS(=O)(=O)c3c(F)cccc3F)c2F)c(-c2ccnc(CCC(=O)O)n2)s1 [6-97]
0.868 ×10⁻⁶ cm/s

Requested read-out: Papp A→B at 90 min, 10 µM. Entry: CC(C)(C)c1nc(-c2c(F)ccc(NS(=O)(=O)c3cc(C(F)(F)F)ccc3C(F)(F)F)c2F)c(-c2ccnc(N)n2)s1 [6-145]
0.94 ×10⁻⁶ cm/s

Requested read-out: Papp A→B at 90 min, 10 µM. Entry: COC(=O)N[C@@H](C)CNc1nccc(-c2cn(C(C)C)nc2-c2cc(Cl)cc(NS(C)(=O)=O)c2F)n1 [Encorafenib, reference compound]
1.32 ×10⁻⁶ cm/s

Requested read-out: Papp A→B at 90 min, 10 µM. Entry: CC(C)(C)c1nc(-c2cccc(NS(=O)(=O)c3c(F)cccc3F)c2F)c(-c2ccnc(N[C@H]3CC[C@H](C(=O)O)CC3)n2)s1 [6-89]
2.24 ×10⁻⁶ cm/s

Requested read-out: Papp A→B at 90 min, 10 µM. Entry: CC(C)(C)c1nc(-c2cccc(NS(=O)(=O)c3c(F)cccc3F)c2F)c(-c2ccnc(N[C@H]3CC[C@@H](C(=O)O)CC3)n2)s1 [6-85]
0.709 ×10⁻⁶ cm/s

Requested read-out: Papp A→B at 90 min, 10 µM. Entry: CC(C)(C)c1nc(-c2cccc(NS(=O)(=O)c3c(F)cccc3F)c2F)c(-c2ccnc(CCCCC(=O)O)n2)s1 [6-131]
0.449 ×10⁻⁶ cm/s
